Cited source: paper PMC8119466

target_under_test: recombinant PRL-3 (Homo sapiens, UniProt O75365)
Construct: 6xHis (N, cleaved yes); made in house; host or cells: E. coli One Shot BL21 Star
Sequence (O75365 whole entry): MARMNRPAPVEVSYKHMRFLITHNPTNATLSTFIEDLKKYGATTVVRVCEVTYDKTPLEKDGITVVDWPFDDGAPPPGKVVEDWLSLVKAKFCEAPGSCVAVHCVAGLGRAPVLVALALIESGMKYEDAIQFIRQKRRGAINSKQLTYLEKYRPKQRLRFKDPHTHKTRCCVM
experiment_summary: In vitro phosphatase assay (DiFMUP hydrolysis), PRL-3; further: test concentration or dose not given here
Assay type: biochemical
condition_description: FDA-approved drug screen; activity compared to DMSO
Structures can show the parent of a compound that is named as a salt.
recorded_endpoint: % Phosphatase Activity (compared to DMSO) PRL-3 (%)

compound	endpoint_unit	recorded_measurement
CN(C)CCOc1ccc(/C(=C(/CCCl)c2ccccc2)c2ccccc2)cc1 [Toremifene Citrate]	%	103
Clc1ccc(C(Cn2ccnc2)OCc2csc3c(Cl)cccc23)c(Cl)c1 (stereo not drawn) [Sertaconazole nitrate]	%	99
Nc1ccc(S(=O)(=O)Nc2ccccn2)cc1 [Sulfapyridine]	%	84
OC[C@@H](O)[C@@H](O)[C@H](O)[C@@H](O)CO [Sorbitol]	%	80
COc1ccc(C(CN(C)C)C2(O)CCCCC2)cc1 (stereo not drawn) [Venlafaxine]	%	84
CC(C(=O)O)c1ccc2c(c1)CC(=O)c1ccccc1S2 (stereo not drawn) [Zaltoprofen]	%	86
Cc1c(Cl)cccc1Nc1ccccc1C(=O)O [Tolfenamic Acid]	%	86
CCOC(=O)N[C@@H]1CC[C@@H]2[C@@H](C1)C[C@H]1C(=O)O[C@H](C)[C@H]1[C@H]2/C=C/c1ccc(-c2cccc(F)c2)cn1 [Vorapaxar]	%	86
COc1cnc(NS(=O)(=O)c2ccc(N)cc2)nc1 [Sulfameter]	%	91

----------
target_under_test: recombinant PRL-1 (Homo sapiens, UniProt Q93096)
Construct: 6xHis (N, cleaved yes); made in house; host or cells: E. coli One Shot BL21 Star
Sequence (Q93096 1-173): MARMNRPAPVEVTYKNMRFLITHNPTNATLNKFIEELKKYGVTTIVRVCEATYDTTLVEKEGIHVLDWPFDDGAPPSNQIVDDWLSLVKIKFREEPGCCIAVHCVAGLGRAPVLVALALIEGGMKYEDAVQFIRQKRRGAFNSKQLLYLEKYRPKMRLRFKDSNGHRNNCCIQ
experiment_summary: In vitro phosphatase assay (DiFMUP hydrolysis), PRL-1; further: test concentration or dose not given here
Format: biochemical
condition_description: FDA-approved drug screen; compared to DMSO
% Phosphatase Activity (compared to DMSO) PRL-1 listing for selected molecules.
recorded_endpoint: % Phosphatase Activity (compared to DMSO) PRL-1 (%)

molecule	recorded_measurement
Cc1cc(O)cc(C)c1Cl [Chloroxylenol]	93
Cc1cc(C2CCCCC2)n(O)c(=O)c1.NCCO [Ciclopirox ethanolamine]	106
N#C[C@@H]1C[C@@H]2C[C@@H]2N1C(=O)[C@@H](N)C12CC3CC(CC(O)(C3)C1)C2 [Saxagliptin]	106
CN1CCN(c2ccc3nc(-c4c(N)c5c(F)cccc5[nH]c4=O)[nH]c3c2)CC1 [Dovitinib (TKI-258, CHIR-258)]	87
C=CCNC1=C2C[C@@H](C)C[C@H](OC)[C@H](O)[C@@H](C)/C=C(\C)[C@H](OC(N)=O)[C@@H](OC)/C=C\C=C(/C)C(=O)NC(=CC1=O)C2=O [17-AAG (Tanespimycin)]	86
CC(C)(Oc1ccc(C(=O)c2ccc(Cl)cc2)cc1)C(=O)O [Fenofibric acid]	104
CCCN(CCc1cccs1)[C@H]1CCc2c(O)cccc2C1 [Rotigotine]	100
CC1(C)O[C@@H]2C[C@H]3[C@@H]4C[C@H](F)C5=CC(=O)C=C[C@]5(C)[C@@]4(F)[C@@H](O)C[C@]3(C)[C@]2(C(=O)CO)O1 [Fluocinolone Acetonide]	110

----------
target_under_test: recombinant PRL-1 (Homo sapiens, UniProt Q93096)
Construct: 6xHis (N, cleaved yes); made in house; host or cells: E. coli One Shot BL21 Star
experiment_summary: In vitro phosphatase assay (DiFMUP hydrolysis), PRL-1; further: test concentration or dose not given here
Assay type: biochemical
condition_description: FDA-approved drug screen; compared to DMSO
Counter-ions that a name gives are not always drawn.
Attribute: % Phosphatase Activity (compared to DMSO) PRL-1
recorded_endpoint: % Phosphatase Activity (compared to DMSO) PRL-1 (%)

compound	recorded_measurement
Nc1nc2c(ncn2COCCO)c(=O)[nH]1	85
COc1ccccc1N1CCN(CC(O)COc2cccc3ccccc23)CC1 (stereo not drawn)	109
Cc1c(NC(=O)c2cccnc2)c(=O)n(-c2ccccc2)n1C	91
CC(C)(C#N)c1cc(Cn2cncn2)cc(C(C)(C)C#N)c1	106
CN1CCC(=C2c3ccccc3C=Cc3ccccc32)CC1 [Cyproheptadine hydrochloride]	93
CC(C)[C@H]1C(=O)N[C@@H](CCCN=C(N)N)C(=O)NCC(=O)N[C@@H](CC(=O)O)C(=O)N[C@H](Cc2ccccc2)C(=O)N1C [Cilengitide]	100
CCOC(=O)n1ccn(C)c1=S	103
[H]/N=C(\N/C(=N/[H])NCCCCCCNC(=N)NC(=N)Nc1ccc(Cl)cc1)Nc1ccc(Cl)cc1 [Chlorhexidine HCl]	97
Cl.Nc1c(Br)cc(Br)cc1CN[C@H]1CC[C@H](O)CC1 [Ambroxol HCl]	105

----------
The entries below are paired with their reported % Phosphatase Activity (compared to DMSO) PRL-1.
target_under_test: recombinant PRL-1 (Homo sapiens, UniProt Q93096)
Construct: 6xHis (N, cleaved yes); made in house; host or cells: E. coli One Shot BL21 Star
experiment_summary: In vitro phosphatase assay (DiFMUP hydrolysis), PRL-1; further: test concentration or dose not given here
Type: biochemical
condition_description: FDA-approved drug screen; compared to DMSO
Counter-ions that a name gives are not always drawn.
recorded_endpoint: % Phosphatase Activity (compared to DMSO) PRL-1 (%)

compound	target_under_test	recorded_measurement
CCCCC1C(=O)N(c2ccccc2)N(c2ccccc2)C1=O [Phenylbutazone]	recombinant PRL-1 (Homo sapiens, UniProt Q93096)	104
O=C(CCCCCCNC(=O)c1cnc(N(c2ccccc2)c2ccccc2)nc1)NO [Rocilinostat (ACY-1215)]	recombinant PRL-1 (Homo sapiens, UniProt Q93096)	102
CCC1(C)CC(=O)NC1=O (stereo not shown) [Ethosuximide]	recombinant PRL-1 (Homo sapiens, UniProt Q93096)	95
CCCCOc1cc(C(=O)NCCN(CC)CC)c2ccccc2n1 [Dibucaine HCl]	recombinant PRL-1 (Homo sapiens, UniProt Q93096)	110
CO[C@H]1/C=C/O[C@@]2(C)Oc3c(C)c(O)c4c(O)c(c(/C=N/N5CCN(C6CCCC6)CC5)c(O)c4c3C2=O)NC(=O)/C(C)=C\C=C\[C@H](C)[C@H](O)[C@@H](C)[C@@H](O)[C@@H](C)[C@H](OC(C)=O)[C@@H]1C [Rifapentine]	recombinant PRL-1 (Homo sapiens, UniProt Q93096)	61
COCCOC(=O)C1=C(C)NC(C)=C(C(=O)OC/C=C/c2ccccc2)C1c1cccc([N+](=O)[O-])c1 (stereo not shown) [Cilnidipine]	recombinant PRL-1 (Homo sapiens, UniProt Q93096)	95
Cl.NCC(O)c1ccc(O)cc1 (racemic) [(+,-)-Octopamine HCl]	recombinant PRL-1 (Homo sapiens, UniProt Q93096)	110
CN(C)CCOC(c1ccccc1)c1ccccc1 [Diphenhydramine HCl]	recombinant PRL-1 (Homo sapiens, UniProt Q93096)	113
Cc1cnc(C(=O)O)c[n+]1[O-] [Acipimox]	recombinant PRL-1 (Homo sapiens, UniProt Q93096)	97
CC(C)(Oc1ccc(C2CC2(Cl)Cl)cc1)C(=O)O (stereo not shown) [Ciprofibrate]	recombinant PRL-1 (Homo sapiens, UniProt Q93096)	95
CC(C)(C)Cn1c(N)nc2ccc(-c3[nH]c(C(C)(C)C)nc3-c3ccc(F)cc3)nc21 [LY2228820]	recombinant PRL-1 (Homo sapiens, UniProt Q93096)	159
COC(=O)C1=C(C)NC(C)=C(C(=O)OC(C)C)C1c1cccc2nonc12 (stereo not shown) [Isradipine]	recombinant PRL-1 (Homo sapiens, UniProt Q93096)	94
C[C@H](CS)C(=O)N1CCC[C@H]1C(=O)O [Captopril]	recombinant PRL-1 (Homo sapiens, UniProt Q93096)	90
C[C@@H]1[C@H](O)[C@@H](C)/C=C/C=C/C=C/C=C/C=C/C=C/C=C/[C@H](O[C@@H]2O[C@H](C)[C@@H](O)[C@H](N)[C@@H]2O)C[C@@H]2O[C@](O)(C[C@@H](O)C[C@@H](O)[C@H](O)CC[C@@H](O)C[C@@H](O)CC(=O)O[C@H]1C)C[C@H](O)[C@H]2C(=O)O [Amphotericin B]	recombinant PRL-1 (Homo sapiens, UniProt Q93096)	102
Cc1cc(/C=C/C#N)cc(C)c1Nc1ccnc(Nc2ccc(C#N)cc2)n1 [Rilpivirine]	recombinant PRL-1 (Homo sapiens, UniProt Q93096)	139
O=C(Nc1cccc2c(=O)cc(-c3nnn[nH]3)oc12)c1ccc(OCCCCc2ccccc2)cc1 [Pranlukast]	recombinant PRL-1 (Homo sapiens, UniProt Q93096)	147

----------
target_under_test: recombinant PRL-2 (Homo sapiens)
Construct: 6xHis (N, cleaved yes); made in house; host or cells: E. coli One Shot BL21 Star
Sequence (Q12974 1-167): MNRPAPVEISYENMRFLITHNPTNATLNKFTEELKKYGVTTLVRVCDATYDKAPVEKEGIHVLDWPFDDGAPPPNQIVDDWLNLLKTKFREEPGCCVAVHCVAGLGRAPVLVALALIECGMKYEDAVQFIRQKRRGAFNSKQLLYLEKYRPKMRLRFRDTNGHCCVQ
experiment_summary: In vitro phosphatase assay (DiFMUP hydrolysis), PRL-2;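 further: PRL-2 activity read as DiFMUP hydrolysis after 20 min at room temperature with drug, enzyme first pre-reduced at 4 °C for 20 min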
Type: biochemical
condition_description: FDA-approved drug screen; activity compared to DMSO
The following compounds are shown together with reported % Phosphatase Activity (compared to DMSO) PRL-2 values.
recorded_endpoint: % Phosphatase Activity (compared to DMSO) PRL-2

compound	recorded_measurement
OC[C@@H](O)[C@@H](O)[C@H](O)[C@@H](O)CO	96%
COc1cccc(-c2ccc(NC(=O)C3=C(C(=O)O)CCC3)c(F)c2)c1	72%
Cc1cc(Nc2cc(N3CCN(C)CC3)nc(Sc3ccc(NC(=O)C4CC4)cc3)n2)n[nH]1	87%
C[C@H](CCC(=O)O)[C@H]1CC[C@H]2[C@@H]3[C@@H](O)C[C@@H]4C[C@H](O)CC[C@]4(C)[C@H]3CC[C@]12C	79%
CC1(C)CCC(C)(C)c2cc(NC(=O)c3ccc(C(=O)O)cc3)ccc21	80%
COc1nc(C)cnc1NS(=O)(=O)c1cccnc1-c1ccc(-c2nnco2)cc1 [Zibotentan (ZD4054)]	97%
COc1cc(NS(=O)(=O)c2ccc(N)cc2)nc(OC)n1	94%
C[C@@H]1CN(c2c(F)c(N)c3c(=O)c(C(=O)O)cn(C4CC4)c3c2F)C[C@H](C)N1	98%
